The values you see were collected from patent US20080221086A1.

Biological target: hQC (Homo sapiens, UniProt Q16769)
Sequence (Q16769 29-361): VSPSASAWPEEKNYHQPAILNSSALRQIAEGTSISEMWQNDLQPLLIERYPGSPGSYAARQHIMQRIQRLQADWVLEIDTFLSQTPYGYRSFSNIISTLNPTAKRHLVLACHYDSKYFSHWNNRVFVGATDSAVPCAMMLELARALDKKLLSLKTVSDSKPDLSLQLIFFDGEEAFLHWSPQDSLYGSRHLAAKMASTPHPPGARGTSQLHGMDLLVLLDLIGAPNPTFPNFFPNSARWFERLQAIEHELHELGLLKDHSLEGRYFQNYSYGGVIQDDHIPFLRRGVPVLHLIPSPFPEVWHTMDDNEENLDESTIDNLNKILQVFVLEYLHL
Experiment: Fluorometric assay of glutaminyl cyclase (QC) inhibition, H-Gln-βNA or H-Gln-AMC substrate
Format: biochemical
Conditions: read-out: IC50
Method: All compounds were immediately tested regarding their activity as hQC inhibitors. The purity of the compounds was determined by HPLC-MS. The IC50 value against hQC was measured using the fluorescent assay. All measurements were performed with a BioAssay Reader HTS-7000Plus for microplates (Perkin Elmer) at 30° C. QC activity was evaluated fluorometrically using H-Gln-βNA. […] QC activity was determined from a standard curve of β-naphthylamine under assay conditions. […]
pIC50: −log10 of the molar value.
metric: pIC50

molecule | subject.of.test | pIC50
Cc1ccc(C2/C(=N/C(C)(C)CC(C)(C)C)NC(=O)N2c2ccc3nc[nH]c3c2)cc1 (stereo not shown) | hQC (Homo sapiens, UniProt Q16769) | 5.24

I = O=C1N/C(=N\c2ccc3c(c2)OCCO3)C(c2ccccc2Cl)N1CCCn1ccnc1 (stereo not shown)
II = COC(=O)C(C)/N=C1\NC(=O)N(c2ccc3[nH]cnc3c2)C1C1CCC(C)=CC1C (stereo not shown)
Query: Input pair: I , II . Output: entry with lower pIC50. // caller expects the label of the chosen entry
Response: II

I = O=C1N/C(=N/Cn2nnc3ccccc32)CN1c1ccc2[nH]cnc2c1
II = O=C(C/N=C1/NC(=O)N(c2ccc3nc[nH]c3c2)C1c1cc2c(cc1Br)OCO2)N1CCSCC1 (stereo not shown)
Query: Which has the higher pIC50, I or II ? // caller expects the label of the chosen entry
Response: II

---

molecular target: hQC (Homo sapiens, UniProt Q16769); test: Fluorometric assay of glutaminyl cyclase (QC) inhibition, H-Gln-βNA or H-Gln-AMC substrate; type: biochemical; settings: read-out: IC50
metric: IC50 (µM)

compound | readout.units | IC50
O=C1N/C(=N\Cc2ccc(Cl)cc2)C(c2ccccc2Cl)N1CCCn1ccnc1 (stereo not shown) | µM | 7.6

A = O=C1N/C(=N/Cc2ccccc2)C(c2ccc[nH]2)N1CCCn1ccnc1 (stereo not shown)
B = O=C1N/C(=N\CCc2cccs2)C(c2cccc(F)c2F)N1CCCn1ccnc1 (stereo not shown)
C = CC1=CC(C)C(C2/C(=N/c3ccc4c(c3)OCCO4)NC(=O)N2c2ccc3[nH]cnc3c2)CC1 (stereo not shown)
Query: Falling order of IC50, please. I would appreciate it if you listed the labels in the requested order.
Response: A, B, C
(A: 9.4 µM, B: 4.9 µM, C: 2.2 µM)

---

biological target: hQC (Homo sapiens, UniProt Q16769); experiment: Fluorometric assay of glutaminyl cyclase (QC) inhibition, H-Gln-βNA or H-Gln-AMC substrate; format: biochemical; conditions: read-out: IC50
metric: IC50 (µM)

Some solved entries appear below for comparison.
molecule | metric | readout.units | assay.result
O=C1N/C(=N\CCc2cccs2)C(c2ccccc2F)N1CCCn1ccnc1 (centres unmarked) [Compound 44] | IC50 | µM | 5.8
O=C1N/C(=N/CCN2CCOCC2)C(c2cc(Br)cc(Br)c2)N1c1ccc2nc[nH]c2c1 (centres unmarked) [Compound 296] | IC50 | µM | 4.9
CCCCC1/C(=N\C)NC(=O)N1CCCn1ccnc1 (centres unmarked) [Compound 16] | IC50 | µM | 7.6

a = O=C1N/C(=N\C2CCCC2)C(c2coc3ccccc3c2=O)N1c1ccc2[nH]cnc2c1 (centres unmarked) [Compound 246]
b = O=C1N/C(=N\C2CCCC2)C(c2ccc3[nH]ccc3c2)N1c1ccc2[nH]cnc2c1 (centres unmarked) [Compound 226]
c = O=C(C/N=C1/NC(=O)N(c2ccc3[nH]cnc3c2)C1c1ccc(Br)cc1)N1CCSCC1 (centres unmarked) [Compound 208]
Query: Falling order of IC50, please. I would appreciate it if you listed the labels in the requested order.
Response: a, c, b

1 = CC1/C(=N\CCc2c[nH]c3ccccc23)NC(=O)N1CCCn1ccnc1 (centres unmarked) [Compound 48]
2 = O=C1CCCN1CCC/N=C1/NC(=O)N(c2ccc3[nH]cnc3c2)C1c1ccc2[nH]ccc2c1 (centres unmarked) [Compound 289]
Query: Which has the higher IC50, 1 or 2 ? // caller expects the label of the chosen entry
Response: 1
(1: 7.6 µM, 2: 0.004 µM)

---

target: UniProtKB Q16769; experiment: Fluorometric assay of glutaminyl cyclase (QC) inhibition, H-Gln-βNA or H-Gln-AMC substrate; type: biochemical; conditions: read-out: IC50
pIC50: −log10 of the molar value.
metric: pIC50

molecule | pIC50
CC(C)(C)CC(C)(C)/N=C1\CN(c2ccc3nc[nH]c3c2)C(=S)N1 | 5.24

A = O=C1N/C(=N/CCc2c[nH]c3ccccc23)C(c2ccc(O)cc2)N1CCCn1ccnc1 (centres unmarked)
B = O=C1N/C(=N\C(c2ccccc2)c2ccccc2)C(c2ccccc2)N1CCCn1ccnc1 (centres unmarked)
C = S=C1N/C(=N/Cn2nnc3ccccc32)C(c2ccc3c(c2)OCCO3)N1c1ccc2[nH]cnc2c1 (centres unmarked)
Query: Falling order of pIC50, please. I would appreciate it if you listed the labels in the requested order.
Response: C, A, B
(C: 6.40, A: 5.89, B: 5.24)

P = Cc1ccc(C2/C(=N/C(C)(C)CC(C)(C)C)NC(=O)N2c2ccc3nc[nH]c3c2)c(C)c1 (centres unmarked)
Q = CCCCC1/C(=N\c2ccc3c(c2)OCCO3)NC(=O)N1CCCn1ccnc1 (centres unmarked)
R = O=C(C/N=C1/NC(=O)N(c2ccc3[nH]cnc3c2)C1c1ccc(Cl)c(F)c1)N1CCCCC1 (centres unmarked)
S = O=C1N/C(=N\C(Cc2ccccc2)c2ccccc2)C(c2cc3c(cc2Br)OCO3)N1c1ccc2[nH]cnc2c1 (centres unmarked)
Query: Order the entries by their reported pIC50, beginning at the minimum. I would appreciate it if you listed the labels in the requested order.
Response: Q, R, P, S
(Q: 5.24, R: 5.51, P: 5.89, S: 8.40)

P = CC1=CC(C)C(C2/C(=N/CCCN3CCCC3=O)NC(=O)N2c2ccc3[nH]cnc3c2)CC1 (centres unmarked)
Q = O=C1NC(=NCC2CCCO2)C(c2cc(F)cc(F)c2)N1CCCn1ccnc1 (centres unmarked)
Query: Which has the higher pIC50, P or Q ? // caller expects the label of the chosen entry
Response: P

---

target: hQC (Homo sapiens, UniProt Q16769); experiment: Fluorometric assay of glutaminyl cyclase (QC) inhibition, H-Gln-βNA or H-Gln-AMC substrate; assay type: biochemical; conditions: read-out: IC50
pIC50: −log10 of the molar value.
metric: pIC50

Some solved entries appear below for comparison.
compound | subject.of.test | assay.result
O=C(C/N=C1/NC(=O)N(CCCn2ccnc2)C1c1ccsc1)N1CCc2ccccc2C1 (centres unmarked) | hQC (Homo sapiens, UniProt Q16769) | 5.24
CC(C)/N=C1\NC(=O)N(c2ccc3[nH]cnc3c2)C1c1cccc(C#N)c1 (centres unmarked) | hQC (Homo sapiens, UniProt Q16769) | 6.40

a = C/N=C1/NC(=O)N(c2ccc3[nH]cnc3c2)C1c1ccc(Cl)c(F)c1 (centres unmarked)
b = O=C1N/C(=N/Cc2ccccc2)C(c2ccc(Cl)cc2)N1c1ccc2[nH]cnc2c1 (centres unmarked)
c = CN(C)CCCN=C1NC(=O)N(c2ccc3[nH]cnc3c2)C1c1ccc2ccccc2c1 (centres unmarked)
Query: Falling order of pIC50, please. I would appreciate it if you listed the labels in the requested order.
Response: b, a, c
(b: 8.40, a: 6.40, c: 5.24)

---

Biological target: hQC (Homo sapiens, UniProt Q16769)
Assay: Fluorometric assay of glutaminyl cyclase (QC) inhibition, H-Gln-βNA or H-Gln-AMC substrate
Type: biochemical
Conditions: read-out: IC50
Method: All compounds were immediately tested regarding their activity as hQC inhibitors. The purity of the compounds was determined by HPLC-MS. The IC50 value against hQC was measured using the fluorescent assay. All measurements were performed with a BioAssay Reader HTS-7000Plus for microplates (Perkin Elmer) at 30° C. QC activity was evaluated fluorometrically using H-Gln-βNA. […] QC activity was determined from a standard curve of β-naphthylamine under assay conditions. […]
metric: IC50 (nM)

Some solved entries appear below for comparison.
compound | readout.units | IC50
O=C1N/C(=N\C2CCCCCC2)C(C2CCOC2)N1c1ccc2[nH]cnc2c1 (centres unmarked) | nM | 9400
CN1CCCN(C(=O)C/N=C2/NC(=O)N(c3ccc4[nH]cnc4c3)C2c2ccc3c(c2)OCCO3)CC1 (centres unmarked) | nM | 2200
Cc1ccc(C2/C(=N/C(C)(C)CC(C)(C)C)NC(=S)N2c2ccc3nc[nH]c3c2)cc1 (centres unmarked) | nM | 5800
CCc1ccccc1/N=C1\NC(=S)N(c2ccc3[nH]cnc3c2)C1c1ccccc1 (centres unmarked) | nM | 9400
O=C1N/C(=N\C2CCCCC2O)C(c2ccc3nsnc3c2)N1c1ccc2[nH]cnc2c1 (centres unmarked) | nM | 4

1 = O=C1CCCN1CCC/N=C1/NC(=O)N(c2ccc3[nH]cnc3c2)C1c1cccc(Br)c1 (centres unmarked)
2 = C/N=C1/NC(=O)N(c2ccc3[nH]cnc3c2)C1c1ccc(N2CCCC2)cc1 (centres unmarked)
Query: Which has the higher IC50, 1 or 2 ? // caller expects the label of the chosen entry
Response: 2
